# Assay method text: Cmax in pregnant human patient with uncomplicated multidrug-resistant Plasmodium falciparum malaria at 120 mg, po administered as 4 tablets BID for 5 days coadministered with 20 mg artemether by two-compartment population pharmacokinetic model
# Assay type: ADME, organism-based
# Parameters: dose 120 mg, route oral
# Experimental setup: female, in vivo
Recorded endpoint: Cmax (ng/mL)
Report the figure in ng/mL without appending any unit label.

CCCCN(CCCC)CC(O)c1cc(Cl)cc2c1-c1ccc(Cl)cc1/C2=C/c1ccc(Cl)cc1 (stereo unspecified) [LUMEFANTRINE] yielded Cmax of 2430

====

# Assay method text: Cmax in venous plasma of pregnant human patient with uncomplicated multidrug-resistant Plasmodium falciparum malaria at 120 mg, po administered as 4 tablets BID for 5 days coadministered with 20 mg artemether measured on 7 days by two-compartment population pharmacokinetic model
# Assay type: ADME, organism-based
# Set-up: dose 120 mg, route oral
# Experimental setup: female
Recorded endpoint: Cmax (ng/mL)
Report the figure in ng/mL without appending any unit label.

CCCCN(CCCC)CC(O)c1cc(Cl)cc2c1-c1ccc(Cl)cc1/C2=C/c1ccc(Cl)cc1 (stereo unspecified) [LUMEFANTRINE] yielded Cmax of 49

====

# Assay method text: Drug concentration in pregnant human patient with uncomplicated multidrug-resistant Plasmodium falciparum malaria at 120 mg, po administered as 4 tablets BID for 3 days coadministered with 20 mg artemether
# Assay type: ADME, organism-based
# Experimental setup: female, in vivo, read-out: Drug uptake
Recorded endpoint: concentration at 72 h

CCCCN(CCCC)CC(O)c1cc(Cl)cc2c1-c1ccc(Cl)cc1/C2=C/c1ccc(Cl)cc1 (stereo unspecified) yielded concentration at 72 h of 135 ng/mL

====

# Assay method text: Drug concentration in pregnant human patient with uncomplicated multidrug-resistant Plasmodium falciparum malaria at 120 mg, po administered as 4 tablets BID for 3 days coadministered with 20 mg artemether measured after 7 days by two-compartment population pharmacokinetic model
# Format: ADME, organism-based
# Experimental setup: female, in vivo, read-out: Drug uptake
Recorded endpoint: concentration at 168 h (ng/mL)
Report the figure in ng/mL without appending any unit label.

CCCCN(CCCC)CC(O)c1cc(Cl)cc2c1-c1ccc(Cl)cc1/C2=C/c1ccc(Cl)cc1 (stereo unspecified) [LUMEFANTRINE] yielded concentration at 168 h of 391

====

# Assay method text: Cmax in pregnant human patient with uncomplicated multidrug-resistant Plasmodium falciparum malaria at 120 mg, po administered as 4 tablets BID for 4 days coadministered with 20 mg artemether measured after 7 days by two-compartment population pharmacokinetic model
# Assay type: ADME, organism-based
# Design: dose 120 mg, route oral
# Experimental setup: female, in vivo
Recorded endpoint: Cmax (ng/mL)
Report the figure in ng/mL without appending any unit label.

CCCCN(CCCC)CC(O)c1cc(Cl)cc2c1-c1ccc(Cl)cc1/C2=C/c1ccc(Cl)cc1 (stereo unspecified) yielded Cmax of 314

====

# Assay method text: Cmax in pregnant human patient with uncomplicated multidrug-resistant Plasmodium falciparum malaria at 120 mg, po administered as 4 tablets BID for 4 days coadministered with 20 mg artemether by two-compartment population pharmacokinetic model
# Type: ADME, organism-based
# Set-up: dose 120 mg, route oral
# Experimental setup: female, in vivo
Recorded endpoint: Cmax
The number alone won't do; follow it with the unit.

CCCCN(CCCC)CC(O)c1cc(Cl)cc2c1-c1ccc(Cl)cc1/C2=C/c1ccc(Cl)cc1 (stereo unspecified) yielded Cmax of 2480 ng/mL

meta.source: ChEMBL document CHEMBL1687741
